Reported protein stability index values are given for each entry in this list.
B1: MATN2 (parent)
chain: TDDSYSCHCLKGFTLNPDKKTCRR

variants of: B1; assay: protein stability index of a GFP-peptide fusion (GPS, HEK-293T) (PSI 1-6); higher = more stable; conditions: c terminus: a fixed tail appended;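 also: lentivirally expressed fusions sorted by FACS into six bins by GFP to DsRed ratio, PSI derived from sequencing read proportions per bin multiplied by bin number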
Give only the figure.

Solved cases below.
| change | assay metric | assay result |
| --- | --- | --- |
| D18P | protein stability index | 2.61 |
| D18S | protein stability index | 2.27 |

Record "D18C" . Reported protein stability index: 2.57

"D2T" has a reported protein stability index of 2.08

Per the record, "T21E" has protein stability index of 2.89
